Entries annotated with measured MIC
System: Acinetobacter baumannii
Experiment: Antibacterial activity against Carbapenem-resistant Acinetobacter baumannii clinical isolate incubated for 16 to 24 hrs by CLSI based broth microdilution method
Format: functional
Conditions: time 16-24 hrs
Give just the numeric value; µg/mL need not be written.

*Q* Endpoint output: MIC of CC(C)C[C@@H](N)C(=O)N[C@H]1C(=O)N[C@@H](CC(N)=O)C(=O)N[C@H]2C(=O)N[C@H]3C(=O)N[C@H](C(=O)N[C@H](C(=O)N[C@H](CCCNC(=N)N)C(N)=O)c4cc(O)cc(O)c4-c4cc3ccc4O)[C@H](O)c3ccc(c(Cl)c3)Oc3cc2cc(c3O[C@@H]2O[C@H](CO)[C@@H](O)[C@H](O)[C@H]2O[C@H]2C[C@](C)(N)[C@H](O)[C@H](C)O2)Oc2ccc(cc2Cl)[C@H]1O . Value?
*A* 64

*Q* Endpoint output: MIC of CC(C)C[C@@H](N)C(=O)N[C@H]1C(=O)N[C@@H](CC(N)=O)C(=O)N[C@H]2C(=O)N[C@H]3C(=O)N[C@H](C(=O)N[C@H](C(=O)NCCCCNC(=N)N)c4cc(O)cc(O)c4-c4cc3ccc4O)[C@H](O)c3ccc(c(Cl)c3)Oc3cc2cc(c3O[C@@H]2O[C@H](CO)[C@@H](O)[C@H](O)[C@H]2O[C@H]2C[C@](C)(N)[C@H](O)[C@H](C)O2)Oc2ccc(cc2Cl)[C@H]1O . Value?
*A* 128

*Q* Endpoint output: MIC of CC(C)C[C@@H](N)C(=O)N[C@H]1C(=O)N[C@@H](CC(N)=O)C(=O)N[C@H]2C(=O)N[C@H]3C(=O)N[C@H](C(=O)N[C@H](C(=O)NCc4ccc(-c5ccc(CCNC(=N)N)cc5)cc4)c4cc(O)cc(O)c4-c4cc3ccc4O)[C@H](O)c3ccc(c(Cl)c3)Oc3cc2cc(c3O[C@@H]2O[C@H](CO)[C@@H](O)[C@H](O)[C@H]2O[C@H]2C[C@](C)(N)[C@H](O)[C@H](C)O2)Oc2ccc(cc2Cl)[C@H]1O . Value?
*A* 64

*Q* Endpoint output: MIC of CC(C)C[C@@H](N)C(=O)N[C@H]1C(=O)N[C@@H](CC(N)=O)C(=O)N[C@H]2C(=O)N[C@H]3C(=O)N[C@H](C(=O)N[C@H](C(=O)NCCNC(=O)[C@@H](N)CCCNC(=N)N)c4cc(O)cc(O)c4-c4cc3ccc4O)[C@H](O)c3ccc(c(Cl)c3)Oc3cc2cc(c3O[C@@H]2O[C@H](CO)[C@@H](O)[C@H](O)[C@H]2O[C@H]2C[C@](C)(N)[C@H](O)[C@H](C)O2)Oc2ccc(cc2Cl)[C@H]1O . Value?
*A* 64
